Test system: Rattus norvegicus
Experiment: Minimal dose producing reduction in avoidance responding after sc administration for 1 hr in rat
Type: functional
endpoint_name: CAR (MPK)
Supply the numeric figure in MPK, leaving out any unit text.

Worked examples follow.
compound="CN1CCc2cc(Cl)c(O)cc2[C@@H](c2ccccc2)C1 [SCH-23390]" endpoint_name=CAR test_result=0.02
compound="CCCC1CN(C)CCc2cc(Cl)c(O)cc21 (configuration not stated)" endpoint_name=CAR test_result=0.3
compound="CN1CCc2cc(Cl)c(O)cc2C(C2C=CCCC2)C1 (configuration not stated)" endpoint_name=CAR test_result=0.3
compound="CN1CCc2cc(Cl)c(O)cc2C(C2CCCCCC2)C1 (configuration not stated)" endpoint_name=CAR test_result=1

Task: Read off the recorded CAR for CCOC1CN(C)CCc2cc(Cl)c(O)cc21 (configuration not stated)
Output: 1

Task: Read off the recorded CAR for CN1CCc2cc(Cl)c(O)cc2C(C2CCCCC2)C1 (configuration not stated)
Output: 0.3

Task: Read off the recorded CAR for CN1CCc2cc(Cl)c(O)cc2C(C2C=CC=CC=C2)C1 (configuration not stated)
Output: 0.1

###

Target: D(1A) dopamine receptor (Rattus norvegicus, UniProt P18901)
Sequence (P18901 whole entry): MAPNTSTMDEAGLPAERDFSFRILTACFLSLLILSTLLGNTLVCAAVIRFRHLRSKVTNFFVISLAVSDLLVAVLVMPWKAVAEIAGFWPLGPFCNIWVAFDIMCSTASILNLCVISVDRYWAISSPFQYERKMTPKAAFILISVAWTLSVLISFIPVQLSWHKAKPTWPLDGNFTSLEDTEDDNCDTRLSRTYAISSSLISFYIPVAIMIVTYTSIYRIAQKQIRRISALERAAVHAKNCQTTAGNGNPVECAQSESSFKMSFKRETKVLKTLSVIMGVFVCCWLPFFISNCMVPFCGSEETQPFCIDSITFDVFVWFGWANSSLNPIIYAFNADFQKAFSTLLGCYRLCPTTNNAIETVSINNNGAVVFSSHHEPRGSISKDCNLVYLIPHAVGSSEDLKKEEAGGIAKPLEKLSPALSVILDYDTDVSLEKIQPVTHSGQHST
Assay: Binding affinity towards Dopamine receptor D1 in rat striatal tissue by [3H]-SCH- 23390 displacement.
Type: tissue-based, Striatum
The following compounds are shown together with reported Ki values.
Supply the numeric figure in nM, leaving out any unit text.

Worked examples follow.
compound=CN1CCc2cc(Cl)c(O)cc2C2(CCCC2)C1 subject_of_test="D(1A) dopamine receptor (Rattus norvegicus, UniProt P18901)" measure_unit=nM test_result=23
compound="CN1CCc2cc(Cl)c(O)cc2C(C2CCCC2)C1 (centres undefined)" subject_of_test="D(1A) dopamine receptor (Rattus norvegicus, UniProt P18901)" measure_unit=nM test_result=13
compound="CN1CCc2cc(Cl)c(O)cc2C(C2C=CC=CC=C2)C1 (centres undefined)" subject_of_test="D(1A) dopamine receptor (Rattus norvegicus, UniProt P18901)" measure_unit=nM test_result=3.7
compound="CN1CCc2cc(Cl)c(O)cc2C(C2=CCCC2)C1 (centres undefined)" subject_of_test="D(1A) dopamine receptor (Rattus norvegicus, UniProt P18901)" measure_unit=nM test_result=5.1
compound="CCOC1CN(C)CCc2cc(Cl)c(O)cc21 (centres undefined)" subject_of_test="D(1A) dopamine receptor (Rattus norvegicus, UniProt P18901)" measure_unit=nM test_result=24
compound="C=CCC1CN(C)CCc2cc(Cl)c(O)cc21 (centres undefined)" subject_of_test="D(1A) dopamine receptor (Rattus norvegicus, UniProt P18901)" measure_unit=nM test_result=5.7

Task: Read off the recorded Ki for "CN1CCc2cc(O)c(Cl)cc2CC1"
Output: 46

Task: Read off the recorded Ki for CN1CCc2cc(Cl)c(O)cc2C(N2CCCCC2)C1 (centres undefined)
Output: 100
